Every entry's value here was drawn from BindingDB's records for doi:10.7270/Q2SB445M.

target: Ras-related protein Rab-7a (Canis lupus familiaris)
Sequence (P18067 whole entry): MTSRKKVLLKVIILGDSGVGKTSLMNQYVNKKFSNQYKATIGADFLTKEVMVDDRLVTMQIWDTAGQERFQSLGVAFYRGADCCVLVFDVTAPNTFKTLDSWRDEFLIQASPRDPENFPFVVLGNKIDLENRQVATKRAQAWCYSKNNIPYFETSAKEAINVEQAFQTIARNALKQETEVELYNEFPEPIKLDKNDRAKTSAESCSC
READOUT NAME: pKi
When answering, recall that pKi equals minus log10 of the concentration in mol/L, and write that number alone.

## Task Look up pKi for this compound: "O=C1NC(=S)N/C1=C1\C(=O)Nc2ccccc21"
## Result 6.06
